- System: WNV
- ASSAY_OVERVIEW: WNV antiviral assay
- Assay type: cell-based, West Nile Virus
- RUN_PARAMETERS: read-out: TC50 (the source's name)
Reported CC50 by item:
QUANTITY_MEASURED: CC50

- O=C(CSc1nc2ccccc2c(=O)n1-c1cc(F)c(F)c(F)c1)Nc1ccc2c(c1)CCC2: ≥ 100 µM
- O=C(CSc1nc2cccc(F)c2c(=O)n1-c1ccc(Cl)c(Cl)c1)Nc1ccc2c(c1)CCC2: ≥ 100 µM
- O=C(CSc1nc2c(F)cccc2c(=O)n1-c1ccc(Cl)c(Cl)c1)Nc1ccc2c(c1)CCC2: 10 to 50 µM
- O=C(CSc1nc2ccccc2c(=O)n1-c1ccccc1F)Nc1ccc2c(c1)CCC2: ≥ 100 µM
